All values here come from PubChem BioAssay AID1903.

molecular target: Large T antigen (Simian virus 40); assay: SV40 large T antigen inhibitors, biochemical (AID 1903); conditions: SV40 large T antigen ATPase/helicase inhibition assay; at 20 µM; active compounds read high
Hit rate of the full screen: of about 310,000 compounds, about 1,200 (0.39%) were called active. Not all results are given here. Results with a measured potency or affinity are listed apart.
Attribute: inhibition
# number only, unit % dropped from output

Worked cases, answers included:
COc1cc(-c2noc(CCC(=O)NC3CCCCC3)n2)cc(OC)c1OC :: 25.3
Cc1cccc2cc3c(nc12)SC(=NCC1CCCO1)N(Cc1ccco1)C3 (configuration not stated) :: 26
O=[N+]([O-])c1cc(Cl)c(O)c2ncccc12 :: 14.7
CSc1ccc(/C=C2/C(=N)N3N=C(CC(=O)N4CCCC4)SC3=NC2=O)cc1 :: 12.1
COc1ccc(/C=N/Nc2nc(=O)[nH]nc2C)cc1OC :: 13.7
O=C(/C(=N/N=C/c1ccc(O)c(O)c1)c1ccccc1)c1ccccc1 :: 32.3

Item under review: O=C(O)c1ccc(NC(CSCc2ccc(F)cc2)C(=O)O)c([N+](=O)[O-])c1 (configuration not stated) . Reported inhibition?
-4.05

Another compound to look at: Cc1c(O)ccc2c(=O)c(-c3nncn3-c3ccccc3)coc12
2.48

Another compound to look at: Cn1c(=Nc2ccccc2)sc2ccccc21
-5.34

Another compound to look at: Cc1ccc(/C=C2\C(=N)N3N=C(CC(=O)N4CCCCC4)SC3=NC2=O)cc1
26.9

====

target: Large T antigen (Simian virus 40); experiment: SV40 large T antigen inhibitors, biochemical (AID 1903); conditions: SV40 large T antigen ATPase/helicase inhibition assay; at 20 µM; active compounds read high
Hit rate of the full screen: of about 310,000 compounds, about 1,200 (0.39%) were called active. Not all results are given here. Potency and affinity values are given separately.
observable: inhibition (%)
# number only, unit % dropped from output

Worked cases, answers included:
Nc1ncnc(N)c1N=Nc1ccccc1 :: 8.05
O=C1N/C(=C/c2ccc(Br)s2)C(=O)N1c1ccccc1 :: 8.81
CCOc1ccc(C(=O)c2ccc(OCC)c(N)c2)cc1N :: 3.54

inhibition of Nc1ncc(Br)cc1N=Cc1ccccc1 on Large T antigen (Simian virus 40)?
9.46

Another compound to look at: O=C(COc1ccc(Br)cc1)NNC(=S)NCc1ccccc1
15

Another compound to look at: COc1ccc(/C=C/C(=O)c2ccc([N+](=O)[O-])o2)cc1OC
17.4

Another compound to look at: CC(C)(C)C(=O)NC(=S)Nc1ccccc1F
0.75

Another compound to look at: Cn1cnc(S(=O)(=O)N2CCN(C(c3ccc(F)cc3)c3ccc(F)cc3)CC2)c1
11.7

Another compound to look at: COc1ccc2c(c1)C(=O)CC(c1ccccc1F)O2 (configuration not stated)
15.3

Another compound to look at: CCOc1ccc(S(=O)(=O)N(CC)CC)cc1N
-1.97

Another compound to look at: Cc1nc(-c2nc(-c3c(C(=O)NNC(=O)Nc4cccc(Cl)c4)noc3C)cs2)cs1
8.51

Another compound to look at: O=C(COc1ccc(S(=O)(=O)N2CCOCC2)cc1)NCCCn1ccnc1
7.23

====

Attribute: inhibition
molecular target: Large T antigen (Simian virus 40) (UniProt P03070); test: SV40 large T antigen inhibitors, biochemical (AID 1903); settings: SV40 large T antigen ATPase/helicase inhibition assay; at 20 µM; active compounds read high
Sequence (P03070 whole entry, looked up): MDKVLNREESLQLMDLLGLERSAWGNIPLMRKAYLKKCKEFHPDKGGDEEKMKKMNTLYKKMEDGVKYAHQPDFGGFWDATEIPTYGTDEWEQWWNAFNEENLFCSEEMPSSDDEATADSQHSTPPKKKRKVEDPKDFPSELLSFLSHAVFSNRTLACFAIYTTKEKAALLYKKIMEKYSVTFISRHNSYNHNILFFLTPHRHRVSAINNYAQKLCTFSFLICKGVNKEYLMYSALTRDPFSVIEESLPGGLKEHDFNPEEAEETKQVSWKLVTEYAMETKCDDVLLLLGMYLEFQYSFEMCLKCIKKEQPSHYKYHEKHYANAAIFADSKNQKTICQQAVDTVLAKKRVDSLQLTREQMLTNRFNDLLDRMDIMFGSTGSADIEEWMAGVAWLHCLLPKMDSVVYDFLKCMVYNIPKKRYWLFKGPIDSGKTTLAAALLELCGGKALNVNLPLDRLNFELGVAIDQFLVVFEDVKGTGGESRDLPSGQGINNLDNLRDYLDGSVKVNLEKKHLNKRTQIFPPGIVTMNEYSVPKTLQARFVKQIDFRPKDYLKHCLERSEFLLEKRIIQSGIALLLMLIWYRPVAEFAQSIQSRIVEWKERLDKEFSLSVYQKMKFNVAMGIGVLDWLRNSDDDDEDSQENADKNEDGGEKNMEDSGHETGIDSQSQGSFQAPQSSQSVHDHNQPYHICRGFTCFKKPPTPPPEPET
In all, about 310,000 compounds went through this assay and about 1,200 (0.39%) were called active. Not all results are given here. Measured potencies and affinities stand elsewhere.
# number only, unit % dropped from output

Worked cases, answers included:
C/C(=N/NC(=O)NC12CC3CC(CC(C3)C1)C2)c1ccccc1 :: 6.61
COc1ccccc1-c1noc(CCCC(=O)NC2CCCCC2)n1 :: 29.8

Item under review: OC(COc1c(F)cc(Br)cc1F)CN1CCOCC1 (stereo not drawn) . Reported inhibition?
2.96

Another compound to look at: COc1cc(C(=O)NCc2nnc(SCC(=O)NC3CCCCC3)o2)cc(OC)c1OC
9.82

Another compound to look at: CC1(C)CC(C(=O)NCCC(c2ccccc2)c2ccco2)CCO1 (stereo not drawn)
3.84

Another compound to look at: COc1cc(C(=O)O)c2c(c1C)OC(=O)c1c(C)cc(O)c(C=O)c1O2
5.23

Another compound to look at: CCN1C(=O)/C(=C\c2ccco2)C(C(=O)OC)=C1C
8.18

Another compound to look at: COc1ccc(/C=N/N=C/c2ccc(OC)c(O)c2)cc1O
1.26

Another compound to look at: Cc1ccc2c(c1)NC(=O)C(CC(=O)O)O2 (stereo not drawn)
3.98

Another compound to look at: Oc1ccc(/C=N/N=C/c2ccc(O)cc2)cc1
27.4

Another compound to look at: Cc1cccc(N=C2NC(=O)/C(=C/C=C/c3ccco3)S2)c1C
5.68

Another compound to look at: COc1cc(C)c2c(c1C=O)Oc1c(c(C)c(O)c3c1C(O)OC3=O)OC2=O (stereo not drawn)
20

Another compound to look at: O=C(OCC(=O)N1CCN(c2ccccc2)CC1)c1cccs1
3.9

Another compound to look at: N#C/C(=C\c1ccccc1Cl)C(=O)NC(=O)Oc1ccccc1
23.3

Another compound to look at: CCCCn1c(N)c(N(CC)C(=O)/C=C/c2ccco2)c(=O)[nH]c1=O
5.15

====

Attribute: inhibition
target: Large T antigen (Simian virus 40); experiment: SV40 large T antigen inhibitors, biochemical (AID 1903); settings: SV40 large T antigen ATPase/helicase inhibition assay; at 20 µM; active compounds read high
About 1,200 (0.39%) of roughly 310,000 compounds were called active. The list is a sample of the results. Potency and affinity values are given separately.
# number only, unit % dropped from output

inhibition of CCc1ccccc1NC(=O)Cn1c(=O)n(-c2ccc(CC(=O)NCC3CCCO3)cc2)c(=O)c2ccccc21 (stereo not given) on Large T antigen (Simian virus 40)?
23.2

Another compound to look at: O=C(CSc1ccccc1C(=O)O)NC12CC3CC(CC(C3)C1)C2
7.17

Another compound to look at: COc1cc(/C=N\NC(=O)Cn2nnc3ccccc32)cc(OC)c1OC
4.84

Another compound to look at: O=C(Cn1nc(C(=O)O)c2ccccc2c1=O)NC12CC3CC(CC(C3)C1)C2
3.68

Another compound to look at: CCOc1cc(/C=N/NC(=O)CCn2nc(C)cc2C)ccc1O
33.9

====

molecular target: Large T antigen (Simian virus 40); assay: SV40 large T antigen inhibitors, biochemical (AID 1903); settings: SV40 large T antigen ATPase/helicase inhibition assay; at 20 µM; active compounds read high
Out of some 310,000 compounds screened, about 1,200 (0.39%) were called active. A selection follows. Potency and affinity values are given separately.
Attribute: inhibition
# number only, unit % dropped from output

Worked cases, answers included:
COc1cc(/C=N/N=C2/NC(=O)C(c3ccccc3)S2)ccc1O (stereo not drawn) :: 30.9
O=C(c1cccc(S(=O)(=O)N2CCOCC2)c1)N1CCCCCC1 :: 0.39
Cc1c(O)ccc2c(CN3CCN(Cc4ccccc4)CC3)cc(=O)oc12 :: 20.2
CC(=O)OC[C@H]1O[C@@H](O/N=C/C[C@@H]2C=C[C@H](OC(C)=O)[C@@H](COC(C)=O)O2)[C@H](OC(C)=O)[C@@H](OC(C)=O)[C@@H]1OC(C)=O :: 7.46
COc1ccc(OC)c(N=C2C(=O)Nc3ccccc32)c1 :: 4.71

inhibition of O=c1nccc(N/N=C/c2ccccc2)[nH]1 on Large T antigen (Simian virus 40)?
2.59

Another molecule to look at: O=C1Nc2ccccc2/C1=N/N=C/c1cccc(O)c1
13.2

Another molecule to look at: COc1ccc(NC2CCCN(Cc3cccc4cnccc34)C2)cc1 (stereo not drawn)
30.9

Another molecule to look at: O=C(COC(=O)C1=COCCO1)NC1CCCCC1
4.07

Another molecule to look at: CCCN(CCC)S(=O)(=O)c1ccc(NC(=O)C2CCCO2)cc1 (stereo not drawn)
3.88

Another molecule to look at: C=CCNC(=O)c1ccccc1NS(=O)(=O)c1ccccc1
4.06

Another molecule to look at: CNC(=O)c1cc(S(=O)(=O)NCc2ccncc2)ccc1OC
11.8

====

Attribute: inhibition
target: Large T antigen (Simian virus 40); experiment: SV40 large T antigen inhibitors, biochemical (AID 1903); details: SV40 large T antigen ATPase/helicase inhibition assay; at 20 µM; active compounds read high
In all, about 310,000 compounds went through this assay and about 1,200 (0.39%) were called active. Only a sample is shown. Measured potencies and affinities stand elsewhere.
# number only, unit % dropped from output

COc1cc(C(=O)OCCN2CCCCC2)ccc1O :: 29.6
Cc1cccc(OCC(=O)N2CCN(c3nnc(-c4ccccc4)c4ccccc34)CC2)c1 :: 12.7
COc1ccccc1-n1c(CNc2ccc(F)cc2)nnc1SCC(=O)Nc1cc(C)on1 :: 25.1
Cc1ccc(N/C=C2\CCCCC2=O)c(C)c1 :: 8.76
COc1cc(C(=S)N2CCCCC2)ccc1O :: 29.3
COc1ccc(NCc2nnc(SCC(=O)c3ccc(OC)cc3)n2C)cc1 :: 21.2

Item under review: [O-][n+]1ccccc1SCc1ccccc1 . Reported inhibition?
10.4

Another compound to look at: CC(C)=N/N=c1\scc(C)n1Cc1ccco1
9.97
